Recorded values, source patent US20230357179A1.

Test system: A375 cells
PROTOCOL_DESCRIPTION: A375 cell proliferation assay (1), resazurin, 96-well
Assay type: cell-based
TEST_CONTEXT: Homo sapiens, A-375, inhibition of cell proliferation
In this section, each of the molecules is paired with its reported IC50.

# MOLECULE, IC50
measured = [
    ("COC(=O)Nc1cc(-c2cnnc(-c3cc(NC(=O)NCCC(C)(C)OC)cnc3C)c2)ccn1 [Example 153]", "1 to 10 µM"),
    ("COC1(CCNC(=O)Nc2cnc(C)c(-c3ccnc(-c4ccnc(NC(=O)C5CC5)c4)n3)c2)CC1 [Example 137]", "1 to 10 µM"),
    ("Cc1cc(F)c(NC(=O)NCCC(C)(C)F)cc1-c1cc(OCCO)nc(-c2ccnc3[nH]ccc23)c1 [Example 97]", "1 to 10 µM"),
]

Here is the next item to consider.
Reported IC50 ( COC(C)(C)CCNC(=O)Nc1cc(-c2cc(OCCO)nc(-c3ccnc4[nH]ncc34)c2)c(C)cc1F [Example 91] ) = 0.5 to 1 µM

----------
EXPERIMENTAL_TARGET: A-Raf kinase (Homo sapiens, UniProt P10398, Y301D/Y302D)
Construct: purchased Sigma
Sequence (P10398 with tags, fused parts or gaps Y301D/Y302D): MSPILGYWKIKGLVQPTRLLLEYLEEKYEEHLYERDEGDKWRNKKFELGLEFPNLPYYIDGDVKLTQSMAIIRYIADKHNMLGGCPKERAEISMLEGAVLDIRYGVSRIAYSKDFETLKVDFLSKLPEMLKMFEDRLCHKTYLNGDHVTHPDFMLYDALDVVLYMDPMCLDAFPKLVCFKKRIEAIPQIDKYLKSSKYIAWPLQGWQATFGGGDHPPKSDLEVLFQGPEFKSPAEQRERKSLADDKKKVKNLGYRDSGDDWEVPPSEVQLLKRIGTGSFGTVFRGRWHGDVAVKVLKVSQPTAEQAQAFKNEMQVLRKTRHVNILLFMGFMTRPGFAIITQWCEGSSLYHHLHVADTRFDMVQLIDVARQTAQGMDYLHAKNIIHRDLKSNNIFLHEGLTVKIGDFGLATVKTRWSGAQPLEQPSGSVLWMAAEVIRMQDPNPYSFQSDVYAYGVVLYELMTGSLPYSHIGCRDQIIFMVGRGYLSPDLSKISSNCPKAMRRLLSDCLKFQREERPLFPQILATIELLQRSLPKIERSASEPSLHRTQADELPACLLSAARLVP
PROTOCOL_DESCRIPTION: Biochemical assay for A-Raf.1 (coupled pyruvate kinase/lactate dehydrogenase)
TEST_CONTEXT: read-out: ARAF.1 IC50
# IC50 values compiled below

# RECORD_SMILES, IC50
data = [
    ("COC(C)(C)CCNC(=O)Nc1cc(-c2cnnc(-c3ccnc(NC(=O)C4CC4)c3)c2)c(C)cc1F", "> 1000 nM"),
    ("Cc1ccc(NC(=O)N2CC[C@H](C(F)(F)F)C2)cc1-c1cncc(-c2ccnc(NC(=O)C3CC3)c2)c1", "500 to 1000 nM"),
    ("COC[C@@H]1CCN(C(=O)Nc2cnc(C)c(-c3ccnc(-c4ccnc(NC(=O)OC)c4)c3)c2)C1", "> 1000 nM"),
    ("CNC(=O)c1cc(-c2cnnc(-c3cc(NC(=O)NCCC(C)(C)OC)cnc3C)c2)ccn1", "> 1000 nM"),
    ("COC(C)(C)CCNC(=O)Nc1cc(-c2ccnc(-c3ccnc(NC(=O)C4CC4)c3)n2)c(C)cc1F", "100 to 500 nM"),
    ("Cc1cc(F)c(NC(=O)NCCC(C)(C)F)cc1-c1cccc(-c2ccnc3[nH]ncc23)c1", "> 1000 nM"),
]

Next up:
Entry CC(=O)Nc1cc(-c2cc(-c3cc(NC(=O)NCCCC(F)(F)F)c(F)cc3C)cc(C3CC3)n2)ccn1 : IC50 on A-Raf kinase (Homo sapiens, UniProt P10398, Y301D/Y302D) = 500 to 1000 nM

----------
EXPERIMENTAL_TARGET: C-Raf kinase (Homo sapiens, UniProt P04049, Y340D/Y341D)
Construct: Y340D,; GST (N); purchased Sigma
Sequence (P04049 307-648 Y340D/Y341D): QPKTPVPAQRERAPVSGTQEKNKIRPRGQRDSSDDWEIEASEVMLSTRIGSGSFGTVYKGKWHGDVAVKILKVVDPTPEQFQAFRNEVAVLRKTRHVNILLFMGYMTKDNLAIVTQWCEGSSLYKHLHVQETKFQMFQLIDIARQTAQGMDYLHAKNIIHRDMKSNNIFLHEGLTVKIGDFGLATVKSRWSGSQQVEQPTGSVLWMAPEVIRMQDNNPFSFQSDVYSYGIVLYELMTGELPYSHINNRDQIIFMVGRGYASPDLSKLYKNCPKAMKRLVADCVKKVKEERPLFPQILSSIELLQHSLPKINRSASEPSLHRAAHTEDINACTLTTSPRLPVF
PROTOCOL_DESCRIPTION: Biochemical assay for C-Raf.1 (coupled pyruvate kinase/lactate dehydrogenase)
TEST_CONTEXT: read-out: CRAF.1 IC50
Protocol: Biochemical Assay for C-Raf.1 Activity of C-Raf kinase (SEQ. ID NO: 3) was determined spectroscopically using a coupled pyruvate kinase/lactate dehydrogenase assay that continuously monitors the ATP hydrolysis-dependent oxidation of NADH (e.g., Schindler et al., Science, 2000, 289, 1938-1942). […] Inhibition of C-Raf was measured by adding serial diluted test compound (final assay concentration of 1% DMSO). […] The reaction rate was calculated using the 4 to 5 h time frame. […]
pIC50: −log10 of the molar value.
PARAMETER_MEASURED: pIC50

# MOLECULE, pIC50
rows = [
    ("COC(=O)Nc1cc(-c2cnnc(-c3cc(NC(=O)N4CCC(CC(F)(F)F)C4)ccc3C)c2)ccn1 (stereo not shown) [Example 186]", "≥ 7.00"),
    ("Cc1cc(F)c(NC(=O)Nc2cnn(C(C)(C)C)c2)cc1-c1cc(OCCN(C)C)nc(N2CCOCC2)c1 [Example 29]", "6.30 to 7.00"),
    ("Cc1cc(F)c(NC(=O)N2CCC(C)(C#N)CC2)cc1-c1cc(OCCO)nc(-c2ccnc3[nH]ncc23)c1 [Example 92]", "6.30 to 7.00"),
]

Result for COC(=O)Nc1cc(-c2nc(OCCO)cc(-c3cc(NC(=O)NC4CC(C)(C)C4)cnc3C)n2)ccn1 [Example 174] , tested on C-Raf kinase (Homo sapiens, UniProt P04049, Y340D/Y341D), pIC50: ≥ 7.00

Sample Cc1cc(F)c(NC(=O)NCCC2(C)COC2)cc1-c1cc(OCCO)nc(-c2ccnc3[nH]ncc23)c1 [Example 110] , system: C-Raf kinase (Homo sapiens, UniProt P04049, Y340D/Y341D). Its pIC50 is 6.30 to 7.00

Reading of pIC50 for COC(=O)Nc1cc(-c2cncc(-c3cc(NC(=O)N4CCCC4)ccc3C)c2)ccn1 [Example 213] with C-Raf kinase (Homo sapiens, UniProt P04049, Y340D/Y341D): 6.00 to 6.30

For Cc1cc(F)c(NC(=O)N2CCC(C)(C#N)C2)cc1-c1cc(OCCO)nc(-c2ccnc3[nH]ncc23)c1 (stereo not shown) [Example 95] on C-Raf kinase (Homo sapiens, UniProt P04049, Y340D/Y341D), measured pIC50 was 6.00 to 6.30

----------
Tested on: Miapaca-2 cells
PROTOCOL_DESCRIPTION: MiaPaca-2 combination cell proliferation assay (1) with cobimetinib, 96-well
Assay type: cell-based
TEST_CONTEXT: inhibition of cell proliferation, read-out: MiaPaca-2 Combo (1) IC50
pIC50: −log10 of the molar value.
Measured pIC50 by item

# count of solved cases: 4
# RECORD_SMILES, pIC50
measured = [
    ("Cc1ccc(NC(=O)N2CC[C@@H](C(F)(F)F)C2)cc1-c1cccc(-c2cc(NC(=O)C3CC3)ncn2)c1", "6.30 to 7.00"),
    ("Cc1ccc(NC(=O)Nc2cccc(C(F)(F)F)c2)cc1-c1cc(OCCO)nc(N2CCOCC2)c1", "≥ 7.00"),
    ("Cc1cc(F)c(NC(=O)NCCC2(C)CC2)cc1-c1cc(OCCO)nc(-c2ccnc3[nH]ncc23)c1", "6.30 to 7.00"),
    ("Cc1cc(F)c(NC(=O)NCCC2(C(F)(F)F)CC2)cc1-c1cc(OCCO)nc(C2CCOCC2)c1", "≥ 7.00"),
]

Response field pIC50 (Miapaca-2 cells) for item Cc1ccc(NC(=O)N2CC[C@H](C(F)(F)F)C2)cc1-c1cccc(-c2cc(NC(=O)C3CC3)ncn2)c1 : 6.30 to 7.00

The reported Miapaca-2 cells pIC50 of Cc1cc(F)c(NC(=O)NCCC2(C)CC2)cc1-c1cc(OCCO)nc(-c2ccnc(NC(=O)C3CC3)c2)c1 is 6.30 to 7.00

The observed pIC50 for Cc1ncc(NC(=O)NCCC2(C)CC2)cc1-c1cc(OCCO)nc(-c2ccnc(NC(=O)C3CC3)c2)c1 when tested with Miapaca-2 cells stands at ≥ 7.00

----------
IC50: recorded values
EXPERIMENTAL_TARGET: B-Raf kinase (Homo sapiens, UniProt P15056)
Construct: GST (N); purchased Sigma
Sequence (P15056 416-766): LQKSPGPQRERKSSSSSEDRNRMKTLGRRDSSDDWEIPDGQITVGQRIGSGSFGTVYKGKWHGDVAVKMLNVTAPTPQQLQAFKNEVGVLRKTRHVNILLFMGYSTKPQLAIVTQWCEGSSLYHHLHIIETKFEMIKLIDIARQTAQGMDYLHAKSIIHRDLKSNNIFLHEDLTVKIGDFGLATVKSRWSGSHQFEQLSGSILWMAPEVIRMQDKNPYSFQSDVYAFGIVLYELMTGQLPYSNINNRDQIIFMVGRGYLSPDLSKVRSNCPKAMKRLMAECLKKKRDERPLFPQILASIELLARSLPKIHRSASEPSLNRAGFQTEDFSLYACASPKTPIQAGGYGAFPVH
PROTOCOL_DESCRIPTION: Biochemical assay for B-Raf.1 (coupled pyruvate kinase/lactate dehydrogenase)
TEST_CONTEXT: read-out: BRAF.1 IC50
Method: Biochemical Assay for B-Raf.1 Activity of B-Raf kinase (SEQ. ID NO: 2) was determined spectroscopically using a coupled pyruvate kinase/lactate dehydrogenase assay that continuously monitors the ATP hydrolysis-dependent oxidation of NADH (e.g., Schindler et al., Science, 2000, 289, 1938-1942). […] Inhibition of B-Raf was measured by adding serial diluted test compound (final assay concentration of 1% DMSO). […] The reaction rate was calculated using the 4 to 5 h time frame. […]

Field: example entries. Status: answers known.
# COMPOUND, IC50
measured = [
    ("Cc1cc(F)c(NC(=O)NCCC2(C)CC2)cc1-c1cccc(-c2ccnc(NC(=O)C3CC3)c2)c1 [Example 64]", "≤ 100 nM"),
    ("Cc1ccc(NC(=O)N2CCC(CC(F)(F)F)C2)cc1-c1cncc(-c2cc(N)ncn2)c1 (stereo not shown) [Example 207]", "100 to 500 nM"),
    ("Cc1cc(F)c(NC(=O)NCCC2(C)COC2)cc1-c1cc(OCCO)nc(-c2ccnc3[nH]ncc23)c1 [Example 110]", "100 to 500 nM"),
    ("COC(=O)Nc1cc(-c2cc(-c3cc(NC(=O)NCCC4CN(C)C4)cnc3C)cc(OCCO)n2)ccn1 [Example 183]", "> 1000 nM"),
    ("Cc1cc(F)c(NC(=O)NCCC(C)(C)F)cc1-c1ccnc(-c2ccnc(NC(=O)C3CC3)c2)c1 [Example 159]", "≤ 100 nM"),
    ("Cc1ncc(NC(=O)NCCC(C)(C)F)cc1-c1ccnc(-c2ccnc(NC(=O)C3CC3)c2)n1 [Example 136]", "≤ 100 nM"),
]

The record that follows has no IC50 shown yet.
Note to self: IC50 recorded for CNC(=O)c1cc(-c2cnnc(-c3cc(NC(=O)NCCC(C)(C)F)c(F)cc3C)c2)ccn1 [Example 132] was 100 to 500 nM
